# System: Ba/F3 P210-BCR-ABL1 RUNX1wt/wt control (mouse)
# test-summary: drug sensitivity score (DSS) (DSS score); higher = more sensitive (stronger growth inhibition); extreme values may be limits of the assay
Please go through the items and note down their drug sensitivity score.

Prompt: Which drug sensitivity score value belongs to `COc1cc2nccc(Oc3ccc(NC(=O)Nc4cc(C)on4)c(Cl)c3)c2cc1OC` ?
Completion: 14.4

Prompt: // next record `C=CCc1cccc(/C=N/NC(=O)CN2CCN(Cc3ccccc3)CC2)c1O`
Completion: 0.15

Prompt: // next record `Nc1nc2[nH]cnc2c(=S)[nH]1`
Completion: 15.3

Prompt: // next record `CCN(CC)CCN(Cc1ccc(-c2ccc(C(F)(F)F)cc2)cc1)C(=O)Cn1c(SCc2ccc(F)cc2)nc(=O)c2c1CCC2`
Completion: 0

Prompt: // next record `NC1(c2ccc(-c3nc4ccn5c(=O)[nH]nc5c4cc3-c3ccccc3)cc2)CCC1`
Completion: 0

Prompt: // next record CC(=O)O[C@]1(C(C)=O)CC[C@H]2[C@@H]3C=C(C)C4=CC(=O)CC[C@]4(C)[C@H]3CC[C@@]21C [Megestrol acetate]
Completion: 0

Prompt: // next record `Cc1ccc(C(=O)N(CCCN)[C@@H](c2oc3cc(Cl)ccc3c(=O)c2Cc2ccccc2)C(C)C)cc1`
Completion: 1.9

Prompt: // next record `S=c1[nH]cnc2nc[nH]c12`
Completion: 6.25
